Reference for the values: the supplement of paper PMC3334620

Target: Stb5 (UniProt P38699)
Sequence: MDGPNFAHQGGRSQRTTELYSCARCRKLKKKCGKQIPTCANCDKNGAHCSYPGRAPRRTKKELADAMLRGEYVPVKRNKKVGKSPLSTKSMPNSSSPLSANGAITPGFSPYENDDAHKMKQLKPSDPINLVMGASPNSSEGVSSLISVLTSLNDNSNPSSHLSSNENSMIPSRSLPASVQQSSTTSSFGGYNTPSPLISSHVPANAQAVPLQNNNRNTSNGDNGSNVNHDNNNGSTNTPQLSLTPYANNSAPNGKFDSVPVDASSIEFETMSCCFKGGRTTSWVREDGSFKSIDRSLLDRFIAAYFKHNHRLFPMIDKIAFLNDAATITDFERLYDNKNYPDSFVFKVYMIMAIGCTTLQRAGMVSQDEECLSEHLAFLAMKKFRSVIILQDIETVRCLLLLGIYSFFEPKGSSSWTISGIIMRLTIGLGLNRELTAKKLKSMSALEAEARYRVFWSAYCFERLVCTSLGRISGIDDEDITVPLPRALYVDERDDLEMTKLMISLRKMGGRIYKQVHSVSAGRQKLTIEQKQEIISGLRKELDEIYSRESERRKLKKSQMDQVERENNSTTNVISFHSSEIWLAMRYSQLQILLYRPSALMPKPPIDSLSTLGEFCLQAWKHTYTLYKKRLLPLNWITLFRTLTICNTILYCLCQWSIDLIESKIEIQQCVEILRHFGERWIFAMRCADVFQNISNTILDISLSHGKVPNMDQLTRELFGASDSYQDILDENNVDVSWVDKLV
Assay: PBM E-score (8-mer binding enrichment) (E-score (-0.5 to 0.5)); higher = stronger / more preferred TF binding
Conditions: protein concentration: 200 nM; construct: GST-full length
Whole data set: some 33,000 sequences, median “E-score (-0.5 to 0.5)” near -0.054, cut for the highest 2% near 0.35. The list comes from a sample in which the highest values are over-represented; it also holds close analogues and randomly drawn sequences.

| biopolymerSequence | targetOrTestSystem | PBM E-score |
| --- | --- | --- |
| ACTCTAAA | Stb5 (UniProt P38699) | 0.01 |
| CGTTGTAA | Stb5 (UniProt P38699) | -0.00989 |
| GGGCAGTA | Stb5 (UniProt P38699) | -0.0652 |
| ATAGAGTG | Stb5 (UniProt P38699) | -0.054 |
| ATGCGGGC | Stb5 (UniProt P38699) | 0.087 |
| GGGACTAA | Stb5 (UniProt P38699) | 0.246 |
| CGGACTCA | Stb5 (UniProt P38699) | 0.411 |
| CGGACTTC | Stb5 (UniProt P38699) | 0.374 |

====

Target: Stb5 (UniProt P38699)
Sequence: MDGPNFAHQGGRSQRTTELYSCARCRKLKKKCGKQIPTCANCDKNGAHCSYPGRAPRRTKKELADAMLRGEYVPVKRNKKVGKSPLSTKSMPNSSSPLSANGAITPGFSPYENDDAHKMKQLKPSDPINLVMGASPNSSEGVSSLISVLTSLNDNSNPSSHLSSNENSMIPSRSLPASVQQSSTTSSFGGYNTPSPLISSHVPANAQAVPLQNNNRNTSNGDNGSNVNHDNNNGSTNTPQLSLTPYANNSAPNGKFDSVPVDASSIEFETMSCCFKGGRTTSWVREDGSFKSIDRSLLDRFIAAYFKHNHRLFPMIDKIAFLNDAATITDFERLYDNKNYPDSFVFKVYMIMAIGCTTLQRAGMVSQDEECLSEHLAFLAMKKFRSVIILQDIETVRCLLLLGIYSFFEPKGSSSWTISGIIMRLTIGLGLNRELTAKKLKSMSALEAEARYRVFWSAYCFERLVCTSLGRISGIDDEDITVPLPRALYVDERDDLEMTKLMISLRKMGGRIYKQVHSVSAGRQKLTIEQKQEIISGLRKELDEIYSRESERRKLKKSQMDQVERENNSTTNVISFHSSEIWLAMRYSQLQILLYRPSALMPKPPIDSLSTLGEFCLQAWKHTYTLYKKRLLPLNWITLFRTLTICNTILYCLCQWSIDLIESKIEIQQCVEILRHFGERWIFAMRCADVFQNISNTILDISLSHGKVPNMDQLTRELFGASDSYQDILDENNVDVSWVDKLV
Test: PBM E-score (8-mer binding enrichment) (E-score (-0.5 to 0.5)); higher = stronger / more preferred TF binding
Conditions: protein concentration: 200 nM; construct: GST-full length
In all, about 33,000 sequences were measured (“E-score (-0.5 to 0.5)”: median about -0.054, highest 2% from about 0.35 on). What follows is part of a selection rich in the highest values, with near analogues and random picks from the rest.
Below, each of the sequences is paired with its reported PBM E-score value.

| biopolymerSequence | PBM E-score |
| --- | --- |
| ATCGGCAC | 0.339 |
| AATTACCG | 0.395 |
| CTCCCTAC | -0.0607 |
| AAATACCC | 0.279 |
| AAGCCCTG | -0.101 |
| AGGCCCCA | -0.255 |
| AAGCCCGT | 0.417 |
| CCCGGACA | 0.315 |
| ACTGCGGC | 0.168 |
| GCTTCGAA | -0.0877 |
| ACTCCATG | -0.0336 |
| ACTCAAGG | -0.223 |
| AAGTAGGT | 0.00443 |
| GTAGTAAC | 0.12 |
| GCCCTTAC | -0.0337 |
| GCGGCACA | 0.173 |
| CTATCTCC | 0.235 |
| AAATCGCG | -0.0128 |
| GACGGACA | 0.372 |
| AAGTACCA | -0.0936 |
| ACCTTACA | -0.0752 |
| CGCGGCAC | 0.288 |
| ATCGGATA | 0.19 |
| TCGTTAGA | -0.147 |
| CTTAAACC | -0.0424 |
| CCTGTTTA | 0.0509 |
| GGCGGCAC | 0.343 |
| CCGGCACC | 0.278 |
| GATAACGA | -0.102 |
| AAGCCCGC | 0.443 |
| CTCGGACA | 0.233 |
| CCAGTATA | -0.066 |
| GAGTTTAC | 0.115 |
